system: Candida; assay: Antifungal activity against Candida sp. clinical isolate 178 derived from high vaginal swabs by microbroth dilution method; format: functional
VALUE_KIND: MIC (µg/mL)

COMPOUND	VALUE_KIND	READOUT_VALUE
Cc1cccc(C)c1NC(=S)NNC(=O)c1ccncc1	MIC	6.25
O=C(NNC(=S)Nc1ccccc1[N+](=O)[O-])c1ccncc1	MIC	0.39
O=C(NNC(=S)Nc1cccc(Cl)c1)c1ccncc1	MIC	6.25
CC(=O)Nc1ccc(NC(=S)NNC(=O)c2ccncc2)cc1	MIC	0.19
CCC(C)n1ncn(-c2ccc(N3CCN(c4ccc(OCC5COC(Cn6cncn6)(c6ccc(Cl)cc6Cl)O5)cc4)CC3)cc2)c1=O (stereo unspecified)	MIC	0.19
